- SYSTEM_NAME: UniProtKB P35372
- Sequence (P35372 whole entry): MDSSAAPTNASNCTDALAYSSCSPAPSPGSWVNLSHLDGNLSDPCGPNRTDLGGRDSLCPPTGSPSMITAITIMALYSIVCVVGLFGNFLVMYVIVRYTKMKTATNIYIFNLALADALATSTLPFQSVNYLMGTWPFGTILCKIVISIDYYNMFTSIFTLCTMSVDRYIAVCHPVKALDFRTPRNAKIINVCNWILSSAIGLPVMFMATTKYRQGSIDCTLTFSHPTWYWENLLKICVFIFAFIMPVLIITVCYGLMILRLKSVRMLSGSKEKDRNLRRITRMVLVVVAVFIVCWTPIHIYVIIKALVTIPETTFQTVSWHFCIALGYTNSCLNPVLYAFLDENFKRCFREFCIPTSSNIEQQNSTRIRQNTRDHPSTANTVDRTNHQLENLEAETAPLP
- Format: binding
- DETAILS: Table 1; ratio of Ki values
Readings of Selectivity MOR/KOR/DOR for the listed compounds

1. CN(Cc1ccc(Cl)cc1)c1ccc2c(c1)[C@@]13CCCC[C@H]1[C@@H](C2)N(CC1CCC1)CC3
1/1/28
2. c1cc2c(cc1CNc1ccc3c(c1)[C@@]14CCCC[C@H]1[C@@H](C3)N(CC1CCC1)CC4)OCO2
1/3/160
3. CN(Cc1cccc(O)c1)c1ccc2c(c1)[C@@]13CCCC[C@H]1[C@@H](C2)N(CC1CCC1)CC3
1/1/10

Would you kindly look at the next entry?
For the compound "CN1CC[C@]23CCCC[C@H]2[C@H]1Cc1ccc(NCc2cccc(O)c2)cc13" , the measured Selectivity MOR/KOR/DOR on UniProtKB P35372 was 1/24/1700
